Target: Nuclear factor NF-kappa-B p105 subunit (Homo sapiens)
Sequence (whole entry): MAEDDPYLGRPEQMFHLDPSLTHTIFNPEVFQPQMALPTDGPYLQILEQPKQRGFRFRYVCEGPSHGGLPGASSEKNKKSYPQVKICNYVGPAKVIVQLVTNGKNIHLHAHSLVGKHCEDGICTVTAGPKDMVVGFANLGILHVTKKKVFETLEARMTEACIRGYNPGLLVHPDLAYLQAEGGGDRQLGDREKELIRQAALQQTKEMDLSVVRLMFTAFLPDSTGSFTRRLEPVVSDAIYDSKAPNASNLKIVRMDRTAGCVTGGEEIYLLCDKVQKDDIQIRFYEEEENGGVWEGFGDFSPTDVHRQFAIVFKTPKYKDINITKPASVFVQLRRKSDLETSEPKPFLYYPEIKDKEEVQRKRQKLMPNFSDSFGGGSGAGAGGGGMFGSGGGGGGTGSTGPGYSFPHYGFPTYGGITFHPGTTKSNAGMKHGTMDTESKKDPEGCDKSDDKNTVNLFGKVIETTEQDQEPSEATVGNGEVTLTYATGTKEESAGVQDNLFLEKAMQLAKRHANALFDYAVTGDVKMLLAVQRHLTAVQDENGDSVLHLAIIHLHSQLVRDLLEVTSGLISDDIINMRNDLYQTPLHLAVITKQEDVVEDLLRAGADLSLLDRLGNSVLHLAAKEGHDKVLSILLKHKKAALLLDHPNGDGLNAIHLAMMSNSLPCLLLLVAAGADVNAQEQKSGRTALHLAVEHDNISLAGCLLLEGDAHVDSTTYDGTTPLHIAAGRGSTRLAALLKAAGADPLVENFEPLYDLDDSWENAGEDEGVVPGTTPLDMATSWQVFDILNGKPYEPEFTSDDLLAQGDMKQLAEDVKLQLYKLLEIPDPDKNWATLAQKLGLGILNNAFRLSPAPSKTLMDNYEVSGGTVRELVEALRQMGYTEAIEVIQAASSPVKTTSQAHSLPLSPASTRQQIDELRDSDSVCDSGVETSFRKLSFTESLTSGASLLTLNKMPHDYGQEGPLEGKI
Test: Inhibition of NF-kappaB in human JJN-3 cells assessed as reduction in p50 DNA binding activity up to 30 nM after 4 hrs by ELISA
Assay type: cell-based
Activity calls are given as the source filed them. The rule behind the calls is not given here.
Possible outcomes: label 1 for active, label 0 for inactive

chem-smiles | category
COc1cc2c(cc1OCCCC(=O)Nc1ccc(O)cc1)N=C[C@@H]1CCCN1C2=O | label 1
COc1ccc(NC(=O)CCCOc2cc3c(cc2OC)C(=O)N2CCC[C@H]2C=N3)cc1 | label 1
COc1cc2c(cc1OCCCC(=O)Nc1ccc3occc3c1)N=C[C@@H]1CCCN1C2=O | label 1
COC(=O)c1cc(NC(=O)c2cc3cc(NC(=O)CCCOc4cc5c(cc4OC)C(=O)N4CCC[C@H]4C=N5)ccc3o2)cn1C | label 0
COc1cc2c(cc1OCCCC(=O)Nc1ccccc1)N=C[C@@H]1CCCN1C2=O | label 1
CCOc1ccc(NC(=O)CCCOc2cc3c(cc2OC)C(=O)N2CCC[C@H]2C=N3)cc1 | label 1

====

target: Transcription factor p65 (Homo sapiens) (UniProt Q04206); assay: Inhibition of NF-kappaB in human JJN-3 cells assessed as reduction in p65 DNA binding activity up to 30 nM after 4 hrs by ELISA; type: cell-based
Sequence (Q04206 whole entry): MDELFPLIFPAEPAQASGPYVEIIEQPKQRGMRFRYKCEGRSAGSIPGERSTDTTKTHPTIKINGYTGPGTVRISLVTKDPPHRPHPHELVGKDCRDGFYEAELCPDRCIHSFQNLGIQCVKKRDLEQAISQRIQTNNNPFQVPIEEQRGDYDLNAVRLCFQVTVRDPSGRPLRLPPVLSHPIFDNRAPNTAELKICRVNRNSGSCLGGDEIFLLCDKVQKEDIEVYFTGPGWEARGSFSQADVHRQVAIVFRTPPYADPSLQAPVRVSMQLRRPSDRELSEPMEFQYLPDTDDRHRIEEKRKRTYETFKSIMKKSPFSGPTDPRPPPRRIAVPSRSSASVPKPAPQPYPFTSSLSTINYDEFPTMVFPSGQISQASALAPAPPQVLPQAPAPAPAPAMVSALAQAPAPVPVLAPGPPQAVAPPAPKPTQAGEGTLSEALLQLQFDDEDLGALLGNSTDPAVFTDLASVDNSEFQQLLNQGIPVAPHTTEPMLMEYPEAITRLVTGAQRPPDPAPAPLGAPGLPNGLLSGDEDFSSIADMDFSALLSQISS
Calls of active or inactive are those of the source. The rule behind the calls is not given here.
Outcome codes: active, inactive

chem-smiles | category
CCOc1ccc(NC(=O)CCCOc2cc3c(cc2OC)C(=O)N2CCC[C@H]2C=N3)cc1 | inactive
COc1ccc(NC(=O)CCCOc2cc3c(cc2OC)C(=O)N2CCC[C@H]2C=N3)cc1 | inactive
COc1cc2c(cc1OCCCC(=O)Nc1ccccc1)N=C[C@@H]1CCCN1C2=O | inactive
COc1cc2c(cc1OCCCC(=O)Nc1ccc(O)cc1)N=C[C@@H]1CCCN1C2=O | inactive
COc1cc2c(cc1OCCCC(=O)Nc1ccc3occc3c1)N=C[C@@H]1CCCN1C2=O | active

====

Target: Transcription factor RelB (Homo sapiens)
Sequence (whole entry): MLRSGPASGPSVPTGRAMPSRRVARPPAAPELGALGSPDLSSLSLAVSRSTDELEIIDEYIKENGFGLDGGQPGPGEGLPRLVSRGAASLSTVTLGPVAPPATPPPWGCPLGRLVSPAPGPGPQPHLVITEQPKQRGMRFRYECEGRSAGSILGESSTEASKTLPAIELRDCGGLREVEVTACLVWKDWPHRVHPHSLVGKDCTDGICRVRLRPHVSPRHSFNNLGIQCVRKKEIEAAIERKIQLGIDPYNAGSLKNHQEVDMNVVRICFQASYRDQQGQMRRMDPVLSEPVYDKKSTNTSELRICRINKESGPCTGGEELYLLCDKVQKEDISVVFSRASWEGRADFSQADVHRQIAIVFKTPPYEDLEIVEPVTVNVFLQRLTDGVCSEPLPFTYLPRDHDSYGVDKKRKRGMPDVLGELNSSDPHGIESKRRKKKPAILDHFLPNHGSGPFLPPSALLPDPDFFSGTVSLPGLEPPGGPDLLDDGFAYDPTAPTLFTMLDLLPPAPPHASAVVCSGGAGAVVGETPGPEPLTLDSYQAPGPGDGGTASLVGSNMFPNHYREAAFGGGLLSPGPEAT
Assay: Inhibition of NF-kappaB in human JJN-3 cells assessed as reduction in RelB DNA binding activity up to 30 nM after 4 hrs by ELISA
Type: cell-based
Calls of active or inactive are those of the source. The calls are words filed in the database; no cut-off is given here.
Labels: active, inactive

chem-smiles | tgt | category
CCOc1ccc(NC(=O)CCCOc2cc3c(cc2OC)C(=O)N2CCC[C@H]2C=N3)cc1 | Transcription factor RelB (Homo sapiens) | inactive
COc1cc2c(cc1OCCCC(=O)Nc1ccc(O)cc1)N=C[C@@H]1CCCN1C2=O | Transcription factor RelB (Homo sapiens) | inactive
COc1cc2c(cc1OCCCC(=O)Nc1ccc3occc3c1)N=C[C@@H]1CCCN1C2=O | Transcription factor RelB (Homo sapiens) | inactive
COC(=O)c1cc(NC(=O)c2cc3cc(NC(=O)CCCOc4cc5c(cc4OC)C(=O)N4CCC[C@H]4C=N5)ccc3o2)cn1C | Transcription factor RelB (Homo sapiens) | active
COc1cc2c(cc1OCCCC(=O)Nc1ccccc1)N=C[C@@H]1CCCN1C2=O | Transcription factor RelB (Homo sapiens) | inactive
COc1ccc(NC(=O)CCCOc2cc3c(cc2OC)C(=O)N2CCC[C@H]2C=N3)cc1 | Transcription factor RelB (Homo sapiens) | inactive

====

experiment: Therapeutic index, ratio of LC50 for human T cells to LC50 for human primary CLL cells; format: toxicity; conditions: T cells versus primary CLL cells, read-out: TI
quantity: selectivity ratio

chem-smiles | quantity | recorded-measurement
COc1cc2c(cc1OCCCC(=O)NC1CCCCC1)N=C[C@@H]1CCCN1C2=O | selectivity ratio | 1.74
CCOc1ccc(NC(=O)CCCOc2cc3c(cc2OC)C(=O)N2CCC[C@H]2C=N3)cc1 | selectivity ratio | 517
COC(=O)c1cc2cc(NC(=O)CCCOc3cc4c(cc3OC)C(=O)N3CCC[C@H]3C=N4)ccc2o1 | selectivity ratio | 236
CCCOc1ccc(NC(=O)CCCOc2cc3c(cc2OC)C(=O)N2CCC[C@H]2C=N3)cc1 | selectivity ratio | 129
COc1cc2c(cc1OCCCC(=O)Nc1ccc3occc3c1)N=C[C@@H]1CCCN1C2=O | selectivity ratio | 415
COc1ccc(NC(=O)CCCOc2cc3c(cc2OC)C(=O)N2CCC[C@H]2C=N3)cc1 | selectivity ratio | 77.5
COC(=O)c1cc(NC(=O)c2cc3cc(NC(=O)CCCOc4cc5c(cc4OC)C(=O)N4CCC[C@H]4C=N5)ccc3o2)cn1C | selectivity ratio | 227

====

test: Therapeutic index, ratio of LC50 for human B cells to LC50 for human primary CLL cells; assay type: toxicity; settings: B cells versus primary CLL cells, read-out: TI
Label yes (1) when selectivity ratio is at or above 100; anything below gets no (0).

chem-smiles | category
CCOc1ccc(NC(=O)CCCOc2cc3c(cc2OC)C(=O)N2CCC[C@H]2C=N3)cc1 | yes (1)
COc1cc2c(cc1OCCCC(=O)NC1CCCCC1)N=C[C@@H]1CCCN1C2=O | no (0)
COC(=O)c1cc(NC(=O)c2cc3cc(NC(=O)CCCOc4cc5c(cc4OC)C(=O)N4CCC[C@H]4C=N5)ccc3o2)cn1C | yes (1)
COc1cc2c(cc1OCCCC(=O)Nc1ccc3occc3c1)N=C[C@@H]1CCCN1C2=O | yes (1)
COC(=O)c1cc2cc(NC(=O)CCCOc3cc4c(cc3OC)C(=O)N3CCC[C@H]3C=N4)ccc2o1 | no (0)
CCCOc1ccc(NC(=O)CCCOc2cc3c(cc2OC)C(=O)N2CCC[C@H]2C=N3)cc1 | no (0)
COc1ccc(NC(=O)CCCOc2cc3c(cc2OC)C(=O)N2CCC[C@H]2C=N3)cc1 | no (0)

The origin of these recorded values is ChEMBL document CHEMBL4411330.
